From: paper PMC10577934

Substrate: O=C(Nc1ccccc1)C(=O)c1ccccc1
Experiment: initial velocity by HPLC of product, nonlinear Michaelis-Menten fit
Assay type: biochemical, Bacillus subtilis
Settings: NAD(P)H cofactor, potassium phosphate 100 mM pH 7.0, 30 °C
Text: initial velocity by HPLC of product, nonlinear Michaelis-Menten fit on iolS
Property Measured: kcat (s⁻¹)
Answers are plain numbers, in s⁻¹.

For reference, reported kcat for iolS (Bacillus subtilis subsp. subtilis str. 168; F126L) (protein, pET28a, His-tagged, expressed in E. coli BL21(DE3), Ni-NTA purified) MKKAKLGKSDLQVFPIGLGTNAVGGHNLYPNLNEETGKELVREAIRNGVTMLDTAYIYGIGRSEELIGEVLREFNREDVVIATKAAHRKQGNDFVFDNSPDFLKKSVDESLKRLNTDYIDLFYIHLPDEHTPKDEAVNALNEMKKAGKIRSIGVSNFSLEQLKEANKDGLVDVLQGEYNLLNREAEKTFFPYTKEHNISFIPYFPLVSGLLAGKYTEDTTFPEGDLRNEQEHFKGERFKENIRKVNKLAPIAEKHNVDIPHIVLAWYLARPEIDILIPGAKRADQLIDNIKTADVTLSQEDISFIDKLFA stands at 3.81
